Test system: Trypanosoma brucei brucei
Assay: Drug level in Trypanosoma brucei brucei S427 at 7.5 uM after 8 hrs
Format: ADME, organism-based
MEASURED METRIC: Drug uptake (mM)
Value expressed in mM; do not type the unit.

MOLECULE | TESTED ON | UNIT ABBREVIATION | Drug uptake
N=C(N)c1ccc(-c2ccc(-c3ccc(C(=N)N)cc3)o2)cc1 [FURAMIDINE] | Trypanosoma brucei brucei | mM | 4.5

Exam item: Look up Drug uptake for this molecule: `N=C(N)c1ccc(-c2ccc(-c3ccc(C(=N)N)nc3)o2)cc1`
Marked response: 9.3

Exam item: For `N=C(N)c1ccc(-c2coc(-c3ccc(C(=N)N)cc3)c2)cc1` , what is its reported Drug uptake?
Marked response: 30

Exam item: Tell me the measured Drug uptake of `N=C(NC1CCCC1)c1ccc(-c2ccc(-c3ccc(C(=N)NC4CCCC4)cc3)o2)cc1` , please.
Marked response: 30

Exam item: Sample `N=C(N)c1ccc(-c2ccc(-c3ccc(C(=N)N)cn3)o2)cc1` — what was its Drug uptake?
Marked response: 1

Exam item: May I ask what Drug uptake has been recorded for `N=C(NC1CCCCC1)c1ccc(-c2ccc(-c3ccc(C(=N)NC4CCCCC4)cc3)o2)cc1` ?
Marked response: 30

====

Test: Binding affinity to poly(dA).poly(dT) assessed as increase in melting temperature
ΔTm reference
Just the number in °C, nothing appended.

COMPOUND | ΔTm (°C)
N=C(N)c1ccc(-c2ccc(-c3ccc(C(=N)N)cn3)o2)cc1 | 20
N=C(N)c1ccc(-c2coc(-c3ccc(C(=N)N)cc3)c2)cc1 | 17.1
c1cc(-c2ccc(-c3ccc(C4=NCCCN4)cc3)o2)ccc1C1=NCCCN1 | 27

Exam item: Fill in: ΔTm of `N=C(NC1CCCC1)c1ccc(-c2ccc(-c3ccc(C(=N)NC4CCCC4)cc3)o2)cc1` is ___
Marked response: 27

Exam item: ΔTm for `N=C(N)c1ccc(-c2ccc(-c3ccc(C(=N)N)cc3F)o2)c(F)c1` ?
Marked response: 15.2

Exam item: Given the compound N=C(N)c1ccc(-c2ccc(-c3ccc(C(=N)N)cc3)o2)cc1 [FURAMIDINE] , what is its reported ΔTm?
Marked response: 26.2

Exam item: Please give the measured ΔTm for this compound: `N=C(N)c1ccc(-c2ccc(-c3ccc(C(=N)N)cc3O)o2)nc1`
Marked response: 16.4

Exam item: Please report the recorded ΔTm for `N=C(N)c1ccc(-c2ccc(-c3ccc(C(=N)N)nc3)o2)cc1` .
Marked response: 23.3

Exam item: Looking for the measured ΔTm of `Cc1cc(C(=N)N)ccc1-c1ccc(-c2ccc(C(=N)N)cn2)o1` , can you help?
Marked response: 16.7

Exam item: # query: ΔTm of entry `N=C(N)c1ccc(Cc2ccc(-c3ccc(C(=N)N)cn3)o2)cc1`
Marked response: 3.1

====

Experiment: Binding affinity at d(CGCGAATTCGCG) synthetic oligomer duplex assessed as increase in melting temperature
Friendly reminder: ΔTm below 10 °C is class 1, at or above is class 0.

Previously resolved entries follow.
LINE NOTATION | CLASS LABEL
N=C(N)c1ccc(-c2ccc(-c3ccc(C(=N)N)cn3)o2)nc1 | class 1
c1cc(-c2ccc(-c3ccc(C4=NCCCN4)cc3)o2)ccc1C1=NCCCN1 | class 0
N=C(N)c1ccc(-c2ccc(-c3ccc(C(=N)N)cc3F)o2)c(F)c1 | class 1

Could you now consider this next compound?
Exam item: Given the entry `N=C(N)c1ccc(Cc2ccc(-c3ccc(C(=N)N)cn3)o2)cc1` , would its reported ΔTm be below 10 °C?
Marked response: class 1

====

Assay: Binding affinity to poly(dA).poly(dT) assessed as increase in melting temperature
This listing pairs compounds with measured ΔTm.
// return numeric value only (unit: °C, not printed)

LINE NOTATION | RECORDED RESULT
N=C(NC1CCCCC1)c1ccc(-c2ccc(-c3ccc(C(=N)NC4CCCCC4)cc3)o2)cc1 | 27
N=C(N)c1ccc(-c2ccc(-c3ccc(C(=N)N)cn3)o2)nc1 | 16

From here, focus on the item given below.
Exam item: Any idea what ΔTm was measured for `c1cc(-c2ccc(-c3ccc(C4=NCCN4)cc3)o2)ccc1C1=NCCN1` ?
Marked response: 19.3

====

Test: Binding affinity at d(CGCGAATTCGCG) synthetic oligomer duplex assessed as increase in melting temperature
MEASURED METRIC: ΔTm (°C)
State the answer as a number, implicitly in °C.

Solved entries:
LINE NOTATION | RECORDED RESULT
N=C(N)c1ccc(-c2ccc(-c3ccc(C(=N)N)cn3)o2)cc1 | 11.2
N=C(NC1CCCC1)c1ccc(-c2ccc(-c3ccc(C(=N)NC4CCCC4)cc3)o2)cc1 | 16
N=C(N)c1ccc(-c2ccc(-c3ccc(C(=N)N)nc3)o2)cc1 | 10.4
N=C(N)c1ccc(-c2ccc(-c3ccc(C(=N)N)cc3O)o2)nc1 | 10.4
N=C(NC1CCCCC1)c1ccc(-c2ccc(-c3ccc(C(=N)NC4CCCCC4)cc3)o2)cc1 | 16.8
N=C(N)c1ccc(-c2coc(-c3ccc(C(=N)N)cc3)c2)cc1 | 10.4

Exam item: Name the reported ΔTm value associated with the compound `c1cc(-c2ccc(-c3ccc(C4=NCCN4)cc3)o2)ccc1C1=NCCN1`
Marked response: 11

Exam item: Reported ΔTm, compound `Cc1cc(C(=N)N)ccc1-c1ccc(-c2ccc(C(=N)N)cn2)o1` : ____
Marked response: 10.6

Exam item: I have this compound here, `N=C(N)c1ccc(-c2ccc(-c3ccc(C(=N)N)cc3)o2)cc1` , and I need its recorded ΔTm.
Marked response: 8.9

The reported numbers originate from ChEMBL document CHEMBL1155146.
